Here the recorded relative viability is given for each entry.
# Test system: SK-ES-1
# protocol description: relative viability vs DMSO control (72 h) (fraction); higher = more viable cells
# assay conditions: 0.04115 µM
Form rule: numeric answer, no unit written next to it.

See these solved cases before continuing.
O=C(Nc1cnn2ccc(N3CCC[C@@H]3c3cc(F)ccc3F)nc12)N1CC[C@H](O)C1 : 1.03
Nc1cc(C(F)(F)F)c(-c2cc(N3CCOCC3)nc(N3CCOCC3)n2)cn1 : 1.04
Cc1nc(NC(=O)N2CCC[C@H]2C(N)=O)sc1-c1ccnc(C(C)(C)C(F)(F)F)c1 : 0.931

Could you tell me which relative viability is on file for O=C(Cc1ccc(-c2ccc(OCCN3CCOCC3)cc2)cn1)NCc1ccccc1 ?
0.235

What about C[C@@H](c1ccc2nccn2c1)n1nnc2ncc(-c3cnn(C)c3)nc21 ?
1.04

What about C[C@@H]1CCN(C(=O)CC#N)C[C@@H]1N(C)c1ncnc2[nH]ccc12 ?
1.01

What about CN1CCN(c2ccc3nc(-c4c(N)c5c(F)cccc5[nH]c4=O)[nH]c3c2)CC1 ?
0.963

What about CCc1cc2c(cc1N1CCC(N3CCOCC3)CC1)C(C)(C)c1[nH]c3cc(C#N)ccc3c1C2=O ?
1.03

----------
# Test system: G401
# protocol description: relative viability vs DMSO control (72 h) (fraction); higher = more viable cells
# assay conditions: 0.00457 µM
assay readout: relative viability
Form rule: numeric answer, no unit written next to it.

COc1cc2c(Oc3ccc4[nH]c(C)cc4c3F)ncnc2cc1OCCCN1CCCC1 : 0.981
COc1c(OCCCN2CCOCC2)ccc2c1N=C(NC(=O)c1cnc(N)nc1)N1CCN=C21 : 0.793
COCc1c(-c2cc3cc(C)cc(OC)c3s2)c2c(N)ncnn2c1CN1CCNC(=O)C1 : 1.01

Next item in the queue.
Could you tell me which relative viability is on file for CC(=O)Nc1cccc(-n2c(=O)n(C3CC3)c(=O)c3c(Nc4ccc(I)cc4F)n(C)c(=O)c(C)c32)c1 ?
0.906

----------
Here the recorded relative viability is given for each entry.
# Test system: RD-ES
# protocol description: relative viability vs DMSO control (72 h) (fraction); higher = more viable cells
# assay conditions: 0.3704 µM
Form rule: numeric answer, no unit written next to it.

See these solved cases before continuing.
N#CC[C@H](C1CCCC1)n1cc(-c2ncnc3[nH]ccc23)cn1 : 0.946
COc1cc2/c(=N/c3ccc(Br)cc3F)nc[nH]c2cc1OCC1CCN(C)CC1 : 0.922
C[C@@H]1CCN(C(=O)CC#N)C[C@@H]1N(C)c1ncnc2[nH]ccc12 : 0.965
O=C(Nc1cnn2ccc(N3CCC[C@@H]3c3cc(F)ccc3F)nc12)N1CC[C@H](O)C1 : 0.964
CN1CCN(c2ccc3nc(-c4c(N)c5c(F)cccc5[nH]c4=O)[nH]c3c2)CC1 : 0.829

Lab note: need relative viability for Cc1nc(NC(=O)N2CCC[C@H]2C(N)=O)sc1-c1ccnc(C(C)(C)C(F)(F)F)c1 on RD-ES, anyone have it?
0.641

What about Cc1nc(-c2cn3c(n2)-c2ccc(-c4cnn(C(C)(C)C(N)=O)c4)cc2OCC3)n(C(C)C)n1 ?
0.472

What about COc1c(OCCCN2CCOCC2)ccc2c1N=C(NC(=O)c1cnc(N)nc1)N1CCN=C21 ?
0.218

What about C[C@]1(O)C[C@@H](c2nc(-c3ccc4ccc(-c5ccccc5)nc4c3)c3c(N)nccn32)C1 ?
0.451

What about Cc1cc(C)c(/C=C2\C(=O)Nc3ccccc32)[nH]1 ?
0.965

What about CCN1CCN(Cc2ccc(Nc3ncc(F)c(-c4cc(F)c5nc(C)n(C(C)C)c5c4)n3)nc2)CC1 ?
0.544
